molecular target: full-length hepatitis C viral protein NS3•4A (Hepatitis C virus genotype 1a, UniProt P27958); construct: hexa-histidine (N); made in house; host or cells: Sf9 insect cells (baculovirus, pVL1392); test: biochemical; set-up: species or system HCV sub-type strain 1a; details: Enzyme Assay 2 (HCV NS3 Peptide Cleavage Assay) activity, apparent Ki class
pKi: −log10 of the molar value.
Reported endpoint: pKi

Example compounds with recorded pKi:
compound="COc1c(C)cc(C2=NO[C@]3(C2)C[C@@H](C(=O)N[C@@H](CC2CC2)C(=O)C(=O)NC2CC2)N(C(=O)[C@@H](NC(=O)CC2CCCCC2)C(C)(C)C)C3)cc1C [Compound 764]" result="6.30 to 7.00"
compound="CCC[C@H](NC(=O)[C@@H]1C[C@]2(CC(c3cccc4cccnc34)=NO2)CN1C(=O)[C@@H](NC(=O)CC1CCCCCC1)C(C)(C)C)C(=O)C(=O)NC1CC1 [Compound 595]" result="> 7.00"

Recorded result, CCC[C@H](NC(=O)[C@@H]1C[C@]2(CC(c3cccc(Cl)c3)=NO2)CN1C(=O)[C@@H](NC(=O)CC1CCCCC1)C(C)(C)C)C(=O)C(=O)NC1CCCCC1 [Compound 99] , pKi: < 6.30

Recorded result, CCC[C@H](NC(=O)[C@@H]1C[C@]2(CC(c3cccc(Cl)c3)=NO2)CN1C(=O)[C@@H](NC(=O)[C@@H]1CCC(=O)N1Cc1cccs1)C(C)(C)C)C(=O)C(=O)NC1CC1 [Compound 30] , pKi: > 7.00

Recorded result, CCC[C@H](NC(=O)[C@@H]1C[C@]2(CC(c3cccc(Cl)c3)=NO2)CN1C(=O)[C@@H](NC(=O)[C@@H]1CCC(=O)N1Cc1cccc(Cl)c1)C(C)(C)C)C(=O)C(=O)NC1CC1 [Compound 377] , pKi: > 7.00

Recorded result, CCC[C@H](NC(=O)[C@@H]1C[C@]2(CC(c3cc(Cl)ccc3OC)=NO2)CN1C(=O)[C@@H](NC(=O)CC1CCCCCC1)C(C)(C)C)C(=O)C(=O)NC [Compound 634] , pKi: > 7.00

Recorded result, CCC[C@H](NC(=O)[C@@H]1C[C@]2(CC(c3ccc(F)c(Cl)c3)=NO2)CN1C(=O)[C@@H](NC(=O)OC1CCCC1)C(C)(C)C)C(=O)C(=O)NC1CC1 [Compound 652] , pKi: > 7.00

Recorded result, CN(C)C(=O)C(=O)[C@@H](CC1CCC1)NC(=O)[C@@H]1C[C@]2(CC(c3cccc(Cl)c3)=NO2)CN1C(=O)[C@@H](NC(=O)CC1CCCCC1)C(C)(C)C [Compound 188] , pKi: < 6.30

Recorded result, CCC[C@H](NC(=O)[C@@H]1C[C@]2(CC(c3cccc(Cl)c3)=NO2)CN1C(=O)[C@@H](CC(=O)NC(C)C)C(C)C)C(=O)C(=O)NC1CC1 [Compound 280] , pKi: < 6.30

Recorded result, CCC[C@H](NC(=O)[C@@H]1C[C@]2(CC(c3cccc(Cl)c3)=NO2)CN1C(=O)[C@@H](NC(=O)CC1CCCCC1)C(C)(C)C)C(=O)C(=O)N1CC(OC2CCOC2)C1 (some centres unmarked) [Compound 368] , pKi: 6.30 to 7.00

Recorded result, COc1ccc(Cl)cc1C1=NO[C@]2(C1)C[C@@H](C(=O)N[C@@H](CC1CC1)C(=O)C(N)=O)N(C(=O)[C@@H](NC(=O)CC1CCCCCC1)C(C)(C)C)C2 [Compound 635] , pKi: > 7.00

Recorded result, CC1(O)CCC(CC(=O)N[C@H](C(=O)N2C[C@@]3(CC(c4cccc(Cl)c4)=NO3)C[C@H]2C(=O)N[C@@H](CC2CC2)C(=O)C(N)=O)C(C)(C)C)CC1 (some centres unmarked) [Compound 5] , pKi: > 7.00

Recorded result, C=C[C@@H]1C[C@]1(NC(=O)[C@@H]1C[C@]2(CC(c3cccc(Cl)c3)=NO2)CN1C(=O)[C@@H](NC(=O)CC1CCOCC1)C(C)(C)C)C(=O)O [Compound 384] , pKi: < 6.30

Recorded result, C#CC[C@H](C(=O)N[C@H](C(=O)N1C[C@@]2(CC(c3cccc(Cl)c3)=NO2)C[C@H]1C(=O)N[C@@H](CCC)C(=O)C(=O)NC1CC1)C(C)(C)C)C1CCCCC1 [Compound 266] , pKi: 6.30 to 7.00

Recorded result, COc1c(C)cc(C2=NO[C@]3(C2)C[C@@H](C(=O)N[C@@H](CC2CC2)C(=O)C(N)=O)N(C(=O)[C@@H](NC(=O)CC2CCCCC2)C(C)(C)C)C3)cc1C [Compound 726] , pKi: > 7.00

Recorded result, CCC[C@H](NC(=O)[C@@H]1C[C@]2(CC(c3cccc(Cl)c3)=NO2)CN1C(=O)[C@@H](NC(=O)CC1CCCCC1)C(C)(C)C)C(=O)C(=O)NCCC1C(=O)Nc2ccccc21 (some centres unmarked) [Compound 458] , pKi: < 6.30

Recorded result, CCC[C@H](NC(=O)[C@@H]1C[C@]2(CC(c3cccc(Cl)c3)=NO2)CN1C(=O)[C@@H](NC(=O)OC(C)(C)C)C(C)(C)C)C(=O)C(=O)NC1CC1 [Compound 90] , pKi: > 7.00

Recorded result, CCC[C@H](NC(=O)[C@@H]1C[C@]2(CC(c3cc(Cl)c4c(c3)OCCN4C)=NO2)CN1C(=O)[C@@H](NC(=O)CC1CCCCC1)C(C)(C)C)C(=O)C(=O)NC1CC1 [Compound 315] , pKi: > 7.00

Recorded result, CCC[C@H](NC(=O)[C@@H]1C[C@]2(CC(c3cccc(Cl)c3)=NO2)CN1C(=O)[C@@H](NC(=O)CC1CCCCC1)C(C)(C)C)C(=O)C(=O)N[C@@H](C)c1ccccc1 [Compound 546] , pKi: 6.30 to 7.00

Recorded result, CNC(=O)C(=O)C(CC1CC1)NC(=O)[C@@H]1C[C@]2(CC(c3cc(C)c(OC)c(C)c3)=NO2)CN1C(=O)[C@@H](NC(=O)OC1CCCC1)C(C)(C)C (some centres unmarked) [Compound 768] , pKi: 6.30 to 7.00
